# assaySystem: Retinoic acid receptor alpha (Homo sapiens)
# Sequence (P10276 whole entry): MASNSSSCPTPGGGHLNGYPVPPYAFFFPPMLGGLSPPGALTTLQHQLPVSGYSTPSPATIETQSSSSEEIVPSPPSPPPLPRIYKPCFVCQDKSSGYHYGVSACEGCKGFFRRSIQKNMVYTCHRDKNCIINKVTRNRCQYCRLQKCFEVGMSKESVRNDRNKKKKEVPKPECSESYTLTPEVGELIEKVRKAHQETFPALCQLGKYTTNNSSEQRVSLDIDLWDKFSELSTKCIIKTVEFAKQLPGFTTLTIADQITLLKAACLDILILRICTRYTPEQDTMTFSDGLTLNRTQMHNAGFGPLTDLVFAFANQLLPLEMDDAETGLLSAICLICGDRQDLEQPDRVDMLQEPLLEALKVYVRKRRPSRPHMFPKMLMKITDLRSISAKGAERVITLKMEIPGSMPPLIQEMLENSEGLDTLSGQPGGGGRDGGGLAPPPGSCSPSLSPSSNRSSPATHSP
# assayOverview: Binding affinity to N-terminal His-tagged human RARalpha LBD extracted from Escherichia coli BL21 (DE3) cells assessed as dissociation constant by ITC analysis
observedProperty: Kd (nM)
Value expressed in nM; do not type the unit.

Given the entry Cc1cc2c(cc1C(=O)/C(Br)=C/c1ccc(C(=O)O)cc1)C(C)(C)CCC2(C)C , report its measured Kd. 1080

====

Entries annotated with measured pKd
# assaySystem: Retinoic acid receptor alpha (Homo sapiens, UniProt P10276)
# assayOverview: Binding affinity to N-terminal His-tagged human RARalpha LBD extracted from Escherichia coli BL21 (DE3) cells assessed as dissociation constant by fluorescence quenching assay
As a rule, pKd stands for the negative log10 of the concentration, concentration in M.

> print(dat)
                                        smi  observedproperty  resultnumber
1  Cc1cc2c(cc1C(=O)/C(Br)=C/c1ccc(C(=O)O)cc1)C(C)(C)CCC2(C)C               pKd          6.36

Moving on to another compound below.
Given the entry Cc1cc2c(cc1C(=O)/C(Br)=C\c1ccc(C(=O)O)cc1)C(C)(C)CCC2(C)C , report its measured pKd. 6.26

====

# assayOverview: Cell cycle arrest in human ATRA-resistant NB4-LR2 cells assessed as accumulation of cells at G0/G1 phase at 1 uM incubated for 12 hrs by DAPI staining based flow cytometric analysis (reference value: 42 %)
# Type: functional
observedProperty: Activity (%)
Value expressed in %; do not type the unit.

> print(dat)
                                   compound  resultnumber
1  CC1=C(/C=C/C(C)=C/C=C/C(C)=C/C(=O)O)C(C)(C)CCC1 [TRETINOIN]            43

Given the entry Cc1cc2c(cc1C(=O)/C(Br)=C/c1ccc(C(=O)O)cc1)C(C)(C)CCC2(C)C , report its measured Activity. 10

Given the entry Cc1cc2c(cc1C(=O)/C(I)=C/c1ccc(C(=O)O)cc1)C(C)(C)CCC2(C)C , report its measured Activity. 41

Given the entry Cc1cc2c(cc1C(=O)/C(Cl)=C/c1ccc(C(=O)O)cc1)C(C)(C)CCC2(C)C , report its measured Activity. 7

====

# assaySystem: Retinoic acid receptor gamma (Homo sapiens)
# Sequence (P13631 whole entry): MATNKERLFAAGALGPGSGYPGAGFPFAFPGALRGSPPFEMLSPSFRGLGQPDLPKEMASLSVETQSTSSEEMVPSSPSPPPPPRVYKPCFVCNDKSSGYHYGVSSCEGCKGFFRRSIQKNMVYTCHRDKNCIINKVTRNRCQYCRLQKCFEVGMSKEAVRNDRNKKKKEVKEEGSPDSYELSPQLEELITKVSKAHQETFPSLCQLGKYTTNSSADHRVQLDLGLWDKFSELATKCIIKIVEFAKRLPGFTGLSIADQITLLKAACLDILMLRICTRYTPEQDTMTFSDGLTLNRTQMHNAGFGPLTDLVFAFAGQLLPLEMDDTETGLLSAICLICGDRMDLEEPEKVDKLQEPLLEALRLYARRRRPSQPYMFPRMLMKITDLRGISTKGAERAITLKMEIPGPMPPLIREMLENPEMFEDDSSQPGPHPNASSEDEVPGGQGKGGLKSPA
# assayOverview: Agonist activity at Gal4-fused full length human RARgamma LBD transfected in HEK293T cells co-transfected with pG5luc reporter and Renilla-luc assessed as transactivation incubated for 12 hrs by dual luciferase reporter gene assay
# Type: cell-based
# conditionSet: read-out: EC50
observedProperty: EC50 (nM)
Value expressed in nM; do not type the unit.

> print(dat)
                                        smi                               assaysystem  resultnumber
1  Cc1cc2c(cc1C(=O)/C(Br)=C/c1ccc(C(=O)O)cc1)C(C)(C)CCC2(C)C  Retinoic acid receptor gamma (Homo sapiens)          2240

Moving on to another compound below.
Given the entry Cc1cc2c(cc1C(=O)/C(Br)=C\c1ccc(C(=O)O)cc1)C(C)(C)CCC2(C)C , report its measured EC50. 1140
